# Test Target: T1, StpA-CTD (Escherichia coli, UniProt P0ACG1 90-134)
# T1 chain: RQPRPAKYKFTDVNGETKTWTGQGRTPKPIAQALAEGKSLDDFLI
# Experiment Description: ITC; 25 C; n=1.69; 50 mM BisTris, 25 mM NaCl, pH 6.4; ITC at 5 and 25 C (40 uM RNA in cell, StpA-CTD 400/800/920 uM injected); NMR with 10% D2O, titration at 25 C
# Setup Conditions: protein: recombinant; tags: none (His6-SUMOstar removed by SUMO protease); chain copies: 2; hairpin (5'-fold)
Experimental Endpoint: Kd (µM)
Use µM as the unit, but write only the number.

Name the recorded Kd of the binder listed here: GACCGGAAGGUCC (structured_RNA) [5'-HP] 24.7
